- System: A549
- Measurement Protocol: Anticancer activity against human A549 cells incubated for 48 hrs by MTT assay
- Type: functional, cell-based
- Experimental Conditions: A549, 48 h
Metric: pIC50
Numbers only, as −log10 of the molar value.

# example entries with known answers
compound=CC(=O)Oc1cccc2c1C(=O)c1c(OC(C)=O)cc(C(=O)N3CCN(C4=C(Cl)C(=O)O[C@@H]4O[C@@H]4C[C@H](C)CC[C@H]4C(C)C)CC3)cc1C2=O numeric_result=3.94
compound=CC(=O)Oc1cccc2c1C(=O)c1c(OC(C)=O)cc(C(=O)N3CCN(C4=C(Br)C(=O)O[C@@H]4O[C@@H]4C[C@H](C)CC[C@H]4C(C)C)CC3)cc1C2=O numeric_result=4.33

Entry COC1OC(=O)C(Cl)=C1N1CCN(C(=O)c2cc(OC(C)=O)c3c(c2)C(=O)c2cccc(OC(C)=O)c2C3=O)CC1 (stereo not drawn) ; pIC50 = 5.24

----------
- Tested on: A549
- Measurement Protocol: Anticancer activity against human A549 cells incubated for 48 hrs by MTT assay
- Assay type: functional, cell-based
- Experimental Conditions: A549, 48 h
For each record, write down the corresponding pIC50.
One number for each entry, as −log10 of the molar value.

# example entries with known answers
compound=CC(C)[C@@H]1CC[C@@H](C)C[C@H]1O[C@H]1OC(=O)C(Br)=C1N1CCN(C(=O)c2cc(O)c3c(c2)C(=O)c2cccc(O)c2C3=O)CC1 metric=pIC50 numeric_result=3.93
compound="COC1OC(=O)C(Br)=C1N1CCN(C(=O)c2cc(OC(C)=O)c3c(c2)C(=O)c2cccc(OC(C)=O)c2C3=O)CC1 (stereo not drawn)" metric=pIC50 numeric_result=5.26

Now consider the entry below.
Entry CC(=O)Oc1cccc2c1C(=O)c1c(OC(C)=O)cc(C(=O)N3CCN(C4=C(Br)C(=O)OC4O[C@@H]4CC5CCC4(C)C5(C)C)CC3)cc1C2=O (stereo partly drawn) ; pIC50 = 4.06

----------
- Measurement Protocol: Cytotoxicity against human KGN cells incubated for 48 hrs by MTT assay
- Assay type: toxicity, cell-based
Metric: IC50 at 48 h (µM)
One number for each entry, in µM.

Entry COC1OC(=O)C(Cl)=C1N1CCN(C(=O)c2cc(OC(C)=O)c3c(c2)C(=O)c2cccc(OC(C)=O)c2C3=O)CC1 (stereo unspecified) ; IC50 at 48 h = 76.4

----------
- Measurement Protocol: Cytotoxicity against human HEK-293T cells incubated for 48 hrs by MTT assay
- Format: toxicity, cell-based
Metric: IC50 at 48 h (µM)
Give bare numbers, in µM.

Entry COC1OC(=O)C(Cl)=C1N1CCN(C(=O)c2cc(OC(C)=O)c3c(c2)C(=O)c2cccc(OC(C)=O)c2C3=O)CC1 (stereo unspecified) ; IC50 at 48 h = 9.15

----------
- Measurement Protocol: Cytotoxicity against human WI-38 cells incubated for 48 hrs by MTT assay
- Assay type: toxicity, cell-based
For each record, write down the corresponding log10(IC50 at 48 h).
All values: log10 IC50 at 48 h [µM].

# example entries with known answers
molecule="COC1OC(=O)C(Br)=C1N1CCN(C(=O)c2cc(OC(C)=O)c3c(c2)C(=O)c2cccc(OC(C)=O)c2C3=O)CC1 (stereo unspecified)" numeric_result=1.59
molecule=CC(C)[C@@H]1CC[C@@H](C)C[C@H]1O[C@H]1OC(=O)C(Cl)=C1N1CCN(C(=O)c2cc(O)c3c(c2)C(=O)c2cccc(O)c2C3=O)CC1 numeric_result=2.47
molecule="Nc1ccn([C@@H]2O[C@H](CO)[C@@H](O)[C@@H]2O)c(=O)n1 [CYTARABINE]" numeric_result=2.69
molecule=CC(C)[C@@H]1CC[C@@H](C)C[C@H]1O[C@H]1OC(=O)C(Br)=C1N1CCN(C(=O)c2cc(O)c3c(c2)C(=O)c2cccc(O)c2C3=O)CC1 numeric_result=2.22
molecule=CC(=O)Oc1cccc2c1C(=O)c1c(OC(C)=O)cc(C(=O)N3CCN(C4=C(Br)C(=O)O[C@@H]4O[C@@H]4C[C@H](C)CC[C@H]4C(C)C)CC3)cc1C2=O numeric_result=1.40

Now consider the entry below.
Entry CC(=O)Oc1cccc2c1C(=O)c1c(OC(C)=O)cc(C(=O)N3CCN(C4=C(Cl)C(=O)OC4O[C@@H]4CC5CCC4(C)C5(C)C)CC3)cc1C2=O (stereo partly specified) ; log10(IC50 at 48 h) = 1.54

----------
- Measurement Protocol: Selectivity index, ratio of IC50 for human WI-38 cells to IC50 for human Calu-1 cells
- Format: toxicity
- Experimental Conditions: WI-38 cells versus Calu-1 cells, read-out: Ratio IC50
Metric: selectivity ratio
Give bare numbers.

Entry COC1OC(=O)C(Cl)=C1N1CCN(C(=O)c2cc(OC(C)=O)c3c(c2)C(=O)c2cccc(OC(C)=O)c2C3=O)CC1 (stereo unspecified) ; selectivity ratio = 5
